Provenance of the data: patent US7244727B2

Listed below: melting point values for each entry.

# COMPOUND, melting point
data = [
    ("CC(=O)N[C@H]1CC[C@H](c2ccc(C3=Nc4c(N)ncnc4OC3(C)C)cc2)CC1 [Example 2-209]", "> 250 °C"),
    ("CC(C)c1ccc(C2=Nc3c(N)ncnc3OC2)cc1 [Example 1-9]", "176 to 178 °C"),
    ("CC(C(=O)O)[C@H]1CC[C@H](c2ccc(C3=Nc4c(N)ncnc4OC3(C)C)cc2)CC1 (stereo partly drawn) [Example 2-69]", "> 250 °C"),
    ("Cc1nc(N)c2c(n1)OC(C)(C)C(c1ccc([C@H]3CC[C@H](CC(=O)O)CC3)c(N)c1)=N2 [Example 6-3]", "280 °C (dec.)"),
    ("Nc1ncnc2c1NC(c1ccc(Br)cc1)C1(CCCC1)O2 (stereo not drawn) [Example 2-14]", "226 to 233 °C"),
    ("CC(=O)N1CCN(C[C@H]2CC[C@H](c3ccc(C4=Nc5c(N)ncnc5OC4(C)C)cc3)CC2)CC1 [Example 2-249]", "202 to 203 °C"),
    ("CC1(C)Oc2ncnc(N)c2N=C1c1ccc([C@H]2CC[C@H](CNC(=O)[C@@H]3CCCN3)CC2)cc1 [Example 2-131]", "230 to 231 °C"),
    ("CC(O)[C@H]1CC[C@H](c2ccc(C3=Nc4c(N)ncnc4OC3(C)C)cc2)CC1 (stereo partly drawn) [Example 2-233]", "224 to 229 °C"),
    ("Cc1nc(N)c2c(n1)OCC(c1ccc(Br)cc1)=N2", "> 220 °C"),
    ("CC1(C)Oc2ncnc(N)c2NC1c1ccccc1 (stereo not drawn) [Example 2-8]", "> 220 °C"),
    ("CC(C)(NC(=O)C[C@H]1CC[C@H](c2ccc(C3Nc4c(N)ncnc4OC3(C)C)cc2)CC1)C(=O)O (stereo partly drawn) [Example 2-73]", "> 250 °C"),
    ("CN1CCN(C(=O)C[C@H]2CC[C@H](c3ccc(C4=Nc5c(N)ncnc5OC4(C)C)cc3)CC2)CC1 [Example 2-92]", "113 to 115 °C"),
    ("CC(C)(C)OC(=O)CNC(=O)C=C1CCC(c2ccc(C3=Nc4c(N)ncnc4OC3(C)C)cc2)CC1 (stereo not drawn) [Example 2-52]", "212 to 215 °C"),
    ("Cc1nc(N)c2c(n1)OC(C)(C)C(c1ccc([C@H]3CC[C@H](CCc4nc(=O)s[nH]4)CC3)cc1)=N2 [Example 2-196]", "211 °C (dec.)"),
    ("CC1(C)Oc2ncnc(N)c2N=C1c1ccc([C@H]2CC[C@H](CCN3CCC(O)CC3)CC2)cc1 [Example 2-84]", "217 to 218 °C"),
    ("Cc1nc(N)c2c(n1)OC(C)(C)C(c1ccc([C@H]3CC[C@H](Cc4nc(=O)s[nH]4)CC3)cc1)=N2 [Example 2-152]", "225 to 226 °C"),
    ("Nc1nc(O)nc2c1N=C(c1ccc(Br)cc1)CO2 [Example 1-29]", "> 220 °C"),
    ("CCCCc1ccc(C2=Nc3c(N)ncnc3OC2)cc1 [Example 1-21]", "183 to 186 °C"),
    ("CN(C(=O)CO)[C@H]1CC[C@H](c2ccc(C3=Nc4c(N)ncnc4OC3(C)C)cc2)CC1 [Example 2-105]", "> 250 °C"),
    ("Cc1nc(N)c2c(n1)OC(C)(C)C(c1ccc([C@H]3CC[C@H](CNC(=O)N(C)C)CC3)c(Cl)c1)=N2 [Example 6-16]", "> 250 °C"),
    ("CCOC(=O)N1CCN(c2ccc(C3=Nc4c(N)ncnc4OC3(C)C)cc2)CC1 [Example 4-5]", "174 to 175 °C"),
    ("Nc1ncnc2c1N=C(c1ccncc1)CO2 [Example 1-18]", "> 220 °C"),
    ("CCOc1ccc(C2=Nc3c(N)ncnc3OC2(C)C)cc1 [Example 2-38]", "189 to 190 °C"),
    ("CC1(C)Oc2ncnc(N)c2NC1c1ccc(C2CCCCC2)cc1 (stereo not drawn) [Example 2-22]", "> 230 °C"),
    ("Nc1ncnc2c1N=C(c1ccc(Br)cc1)C1(CCCC1)O2 [Example 2-13]", "184 to 186 °C"),
    ("CC1(C)Oc2ncnc(N)c2N=C1c1ccc(C2CCC(=CC(=O)O)CC2)cc1 (stereo not drawn) [Example 2-40]", "> 250 °C"),
    ("CC1(C)Oc2ncnc(N)c2N=C1c1ccc(F)cc1", "189 to 190 °C"),
]

###

Target: human DGAT1 (Homo sapiens)
Sequence (O75907 1-488): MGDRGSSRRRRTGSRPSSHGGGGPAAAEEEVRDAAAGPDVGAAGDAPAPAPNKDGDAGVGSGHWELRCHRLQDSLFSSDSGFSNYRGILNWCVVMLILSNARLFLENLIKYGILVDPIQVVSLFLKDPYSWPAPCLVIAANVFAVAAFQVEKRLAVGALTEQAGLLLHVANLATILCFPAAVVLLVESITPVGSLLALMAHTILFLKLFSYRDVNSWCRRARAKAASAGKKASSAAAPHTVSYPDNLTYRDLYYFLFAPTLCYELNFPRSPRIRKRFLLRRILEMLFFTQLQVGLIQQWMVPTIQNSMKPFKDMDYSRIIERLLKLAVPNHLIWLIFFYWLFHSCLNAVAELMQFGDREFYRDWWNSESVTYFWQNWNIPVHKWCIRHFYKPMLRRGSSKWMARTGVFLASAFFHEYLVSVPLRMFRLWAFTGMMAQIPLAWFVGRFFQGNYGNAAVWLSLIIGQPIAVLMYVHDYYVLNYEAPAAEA
pIC50: −log10 of the molar value.

# MOLECULE, pIC50
measured = [
    ("CC1(C)Oc2ncnc(N)c2N=C1c1ccc(C2CCC3(CC2)CC3C(=O)O)cc1 (centres unmarked)", "7.00 to 8.00"),
    ("Cc1nc(N)c2c(n1)OC(C)(C)C(c1ccc([C@H]3CC[C@H](CNC(=O)C(O)CCO)CC3)cc1)=N2 (some centres unmarked)", "7.00 to 8.00"),
    ("Nc1ncnc2c1N=C(c1ccc([N+](=O)[O-])cc1)CO2", "< 7.00"),
    ("CC1(C)Oc2nc(C(F)(F)F)nc(N)c2N=C1c1ccc2c(c1)CCC21CCC(C2(C(=O)O)CC2)CC1 (centres unmarked)", "7.00 to 8.00"),
    ("CCCN(C)C(=O)CC[C@H]1CC[C@H](c2ccc(C3=Nc4c(N)ncnc4OC3(C)C)cc2)CC1", "7.00 to 8.00"),
    ("Nc1ncnc2c1NC(c1ccc(Cl)cc1Cl)CO2 (centres unmarked)", "< 7.00"),
    ("CC1(C)Oc2ncnc(N)c2N=C1c1ccc([C@H]2CC[C@H](CCN3CCC(O)(c4ccccc4)CC3)CC2)cc1", "< 7.00"),
    ("CC1(C)Oc2ncnc(N)c2N=C1c1ccc(N2CCC(Cc3ccccc3)CC2)cc1", "< 7.00"),
    ("Nc1ncnc2c1N=C(c1cccnc1)CO2", "< 7.00"),
    ("Nc1ncnc2c1N=C(c1ccc(C3CCCCC3)cc1)CO2", "< 7.00"),
    ("CN(C)c1nc(N)c2c(n1)OCC(c1ccc(Br)cc1)=N2", "< 7.00"),
]

###

Biological target: UniProt:O75907

# MOLECULE, IC50
rows = [
    ("Cc1nc(N)c2c(n1)OC(C)(C)C(c1ccc3c(c1)CCC31CCC([C@@H](C)C(=O)O)CC1)=N2 (some centres unmarked)", "10 to 100 nM"),
    ("Nc1ncnc2c1N=C(c1ccc(F)cc1)CO2", "> 100 nM"),
    ("CN1CCN(C(=O)C[C@H]2CC[C@H](c3ccc(C4=Nc5c(N)ncnc5OC4(C)C)cc3)CC2)CC1", "10 to 100 nM"),
    ("Cc1csc(NCC[C@H]2CC[C@H](c3ccc(C4=Nc5c(N)ncnc5OC4(C)C)cc3)CC2)n1", "10 to 100 nM"),
    ("Cc1nc(N)c2c(n1)OC(C)(C)C(c1ccc3c(c1)CC[C@]31CC[C@@H](CC(=O)O)CC1)=N2", "10 to 100 nM"),
    ("CC1(C)Oc2ncnc(N)c2N=C1c1ccc(C2CCC(N3CCCCC3)CC2)cc1 (centres unmarked)", "> 100 nM"),
    ("CC1(C)Oc2ncnc(N)c2N=C1c1ccc([C@H]2CC[C@H](CN[C@H]3CC[C@H](O)CC3)CC2)cc1", "10 to 100 nM"),
    ("CC1(C)Oc2ncnc(N)c2N=C1c1ccc2c(c1)CCCC2", "> 100 nM"),
    ("Cc1nc(N)c2c(n1)OC(C)(C)C(c1ccc([C@H]3CC[C@H](CNC(=O)CO)CC3)c(F)c1)=N2", "10 to 100 nM"),
    ("CCOC(=O)C1CCN(c2ccc(C3=Nc4c(N)ncnc4OC3(C)C)cc2)CC1", "> 100 nM"),
    ("CC1(C)Oc2ncnc(N)c2N=C1c1ccc([C@H]2CC[C@H](CCO)CC2)cc1", "10 to 100 nM"),
]
